Hello, the source for this data is ChEMBL document CHEMBL1145169, in case you need it.

Experiment: Effective concentration in human ATP binding cassette transporter A1 (ABCA1) transcriptional activation assay
Could you mark each record criterion met if its EC50 falls strictly under 1000 nM, and criterion not met if it equals or exceeds it?

molecule=O=C1C(Nc2ccc(Cl)cc2)=C(c2ccccc2)C(=O)N1Cc1ccccc1 grouplabel="criterion not met"
molecule=CN1C(=O)C(Nc2ccccc2)=C(c2ccccc2)C1=O grouplabel="criterion not met"
molecule=O=C(O)Cc1cccc(OCCCN(Cc2cccc(C(F)(F)F)c2Cl)CC(c2ccccc2)c2ccccc2)c1 grouplabel="criterion met"

Hi there! Is EC50 for O=C1C(Nc2ccccc2)=C(c2ccccc2)C(=O)N1Cc1ccccc1 below 1000 nM, do you know?
criterion not met

Try COc1ccc(NC2=C(c3ccccc3)C(=O)N(Cc3ccccc3)C2=O)cc1 next.
criterion met

Try CCN1C(=O)C(Nc2ccccc2)=C(c2ccccc2)C1=O next.
criterion not met

Try COc1ccc(NC2=C(c3ccccc3)C(=O)N(c3ccccc3)C2=O)cc1 next.
criterion not met

Try CCN1C(=O)C(Nc2ccc(Cl)cc2)=C(c2ccccc2)C1=O next.
criterion not met
